Values compiled from ChEMBL document CHEMBL3507680.

assay-text: Human HepG2 cell viability assay in 384 well format
Assay type: toxicity, cell-based
Set-up: dose 125 nL, time 70.5 hour; concentration not given beside the values
recorded-conditions: HepG2 cells, read-out: Inhibition
Provide the recorded cytotoxicity at 70.5 h for the entries that follow.
Number in %, nothing else.

Ask | Please report the recorded cytotoxicity at 70.5 h for Cn1nc2c(cc1=O)CN(Cc1nc(-c3ccccn3)no1)CC2 .
Reply | -9

Ask | Please report the recorded cytotoxicity at 70.5 h for COc1cc(N2CCC3(CC2)CCN(c2cccnc2)C3=O)ncn1 .
Reply | -9.9

Ask | Please report the recorded cytotoxicity at 70.5 h for Cc1nc(C)c(C(C)NCc2c(C)nn(CC(C)C)c2N(C)C)s1 (centres undefined) .
Reply | -3.31

Ask | Please report the recorded cytotoxicity at 70.5 h for C=C(C)CN1CCC(c2n[nH]c(C3CC3)n2)CC1 .
Reply | 23.2

Ask | Please report the recorded cytotoxicity at 70.5 h for CCn1c(C)nnc1SCCn1cc(-c2nccs2)nn1 .
Reply | -7.44

Ask | Please report the recorded cytotoxicity at 70.5 h for Cc1ccoc1CNCc1nnc2n1CCCC2C(F)(F)F (centres undefined) .
Reply | -3.7

Ask | Please report the recorded cytotoxicity at 70.5 h for CN(C)CC1COCCN1C(=O)C1(c2cccs2)CCCC1 (centres undefined) .
Reply | 0.993

Ask | Please report the recorded cytotoxicity at 70.5 h for Cc1noc(C)c1CN1C[C@@H](OCC(=O)N(C)C)[C@H]2OCCC[C@H]21 .
Reply | -9.4

Ask | Please report the recorded cytotoxicity at 70.5 h for CCN(Cc1csc(C)n1)c1cccc(CO)c1 .
Reply | -3.7

====

assay-text: Human HepG2 cell viability assay in 384 well format
Format: toxicity, cell-based
Set-up: dose 125 nL, time 70.5 hour; concentration not given beside the values
recorded-conditions: HepG2 cells, read-out: Inhibition
Provide the recorded cytotoxicity at 70.5 h for the entries that follow.
Number in %, nothing else.

Ask | Please report the recorded cytotoxicity at 70.5 h for O=C(CCCn1ccnc1)N1CCC2(CC1)[C@H](O)C[C@@H]2OCCO .
Reply | -7.46

Ask | Please report the recorded cytotoxicity at 70.5 h for CCN(C(=O)CN1CCn2c(nnc2C2CC2)C1)C1=CCCCC1 .
Reply | -14.8

Ask | Please report the recorded cytotoxicity at 70.5 h for CC(C)C(=O)N1CCC(C)(c2cc[nH]n2)CC1 .
Reply | -0.608

Ask | Please report the recorded cytotoxicity at 70.5 h for Cc1noc(C)c1CN(C)C(=O)c1ccc(C(F)(F)F)nc1 .
Reply | -0.00923

Ask | Please report the recorded cytotoxicity at 70.5 h for O=C(c1cc[nH]n1)N1CC[C@@H]2CN(Cc3ccncc3)S(=O)(=O)[C@@H]2CC1 .
Reply | -5.13

Ask | Please report the recorded cytotoxicity at 70.5 h for O=C1CC(NCc2ccncc2)CN1CCc1cccc(Cl)c1 (stereo not given) .
Reply | -6.56

Ask | Please report the recorded cytotoxicity at 70.5 h for CC(=O)NCC1CCN(C(=O)CCOc2ccc(C(C)C)cc2)CC1 .
Reply | -0.488

Ask | Please report the recorded cytotoxicity at 70.5 h for Cc1csc(C2CCCCN2C(=O)c2cc(C(C)C)[nH]n2)n1 (stereo not given) .
Reply | 1.99

Ask | Please report the recorded cytotoxicity at 70.5 h for CCOc1ccccc1OC1CCN(C(=O)c2ccc(=O)[nH]n2)CC1 .
Reply | -7.24

Ask | Please report the recorded cytotoxicity at 70.5 h for Cc1ccc(CCNC(=O)c2cccnc2)o1 .
Reply | 30.2

====

assay-text: Human HepG2 cell viability assay in 384 well format
Format: toxicity, cell-based
Set-up: dose 125 nL, time 70.5 hour; concentration not given beside the values
recorded-conditions: HepG2 cells, read-out: Inhibition
measured-metric: cytotoxicity at 70.5 h (%)
Number in %, nothing else.

Ask | Please report the recorded cytotoxicity at 70.5 h for CC(C)N1CCC(N2CCC(C(=O)N(C)C)CC2)CC1 .
Reply | 1.65

Ask | Please report the recorded cytotoxicity at 70.5 h for COc1cccc(-c2cnc(CNC(C)(C)c3nc(C)cs3)o2)c1 .
Reply | -4.32

Ask | Please report the recorded cytotoxicity at 70.5 h for Cc1cnn(CCC(=O)N2CCCC(c3cc(C(N)=O)[nH]n3)C2)c1 (configuration not stated) .
Reply | -10.9

Ask | Please report the recorded cytotoxicity at 70.5 h for COc1ccccc1C(C)(C)NC(=O)c1cc(NC(C)=O)ccc1F .
Reply | -6.53

Ask | Please report the recorded cytotoxicity at 70.5 h for COc1ccccc1OCCCN(C)c1cc(C)nc(N)n1 .
Reply | -4.86

Ask | Please report the recorded cytotoxicity at 70.5 h for CC1(C(N)=O)CN(CC2CCC2)CCO1 (configuration not stated) .
Reply | -2.2

Ask | Please report the recorded cytotoxicity at 70.5 h for CN(C(=O)COc1ccc(-c2noc(C3CCCO3)n2)cc1)C1CC1 (configuration not stated) .
Reply | 0.982

Ask | Please report the recorded cytotoxicity at 70.5 h for CCOc1ccc(CN2CCN(C(=O)c3ccc(C)n3C)CC2)cc1 .
Reply | -0.122

Ask | Please report the recorded cytotoxicity at 70.5 h for O=c1cc(Cn2cncn2)nc2n1CCCN(Cc1ccco1)C2 .
Reply | -3.55

Ask | Please report the recorded cytotoxicity at 70.5 h for CNC(=O)c1nc2c(s1)CCN(C(=O)c1ccccc1)CC2 .
Reply | -9.7

Ask | Please report the recorded cytotoxicity at 70.5 h for CN1CCC2(CC1)CNC(=O)c1ccccc1O2 .
Reply | -13.6

Ask | Please report the recorded cytotoxicity at 70.5 h for Cc1nc(C2CCCN(C(=O)CCCn3cccn3)C2)sc1C (configuration not stated) .
Reply | -15.3

Ask | Please report the recorded cytotoxicity at 70.5 h for CCNC(=O)NC(=O)CNc1cc(C#N)ccc1OCC .
Reply | -3.61

Ask | Please report the recorded cytotoxicity at 70.5 h for CN(Cc1ccc(F)cc1F)CC(C)(CO)CO .
Reply | -5.77

Ask | Please report the recorded cytotoxicity at 70.5 h for CCOc1ccc(S(=O)(=O)NC(=O)c2c(C)noc2C(C)C)cc1 .
Reply | 1.8

Ask | Please report the recorded cytotoxicity at 70.5 h for CCCc1n[nH]c(C2CN(C(=O)c3cccnc3N(C)C)CCO2)n1 (configuration not stated) .
Reply | -0.878

Ask | Please report the recorded cytotoxicity at 70.5 h for CC(C)CN1CCC2(CCN(Cc3nccs3)CC2)C1=O .
Reply | 0.492

Ask | Please report the recorded cytotoxicity at 70.5 h for COCC(=O)N1CCCn2c(CN3CCCCC3)nnc2C1 .
Reply | -7.69

Ask | Please report the recorded cytotoxicity at 70.5 h for NC(=O)CS(=O)(=O)Cc1csc(-c2ccc(F)cc2)n1 .
Reply | 13.6

Ask | Please report the recorded cytotoxicity at 70.5 h for CN(C(=O)c1cccc(C#N)c1)c1nnc(C2CCOC2)s1 (configuration not stated) .
Reply | -7.42

Ask | Please report the recorded cytotoxicity at 70.5 h for CCC(=O)NC1CCCN(C(=O)Nc2cc(-c3ccccc3)on2)C1 (configuration not stated) .
Reply | -10.8

Ask | Please report the recorded cytotoxicity at 70.5 h for Cc1cc(C)cc(C(C)NC(=O)c2ccc(CS(C)(=O)=O)o2)c1 (configuration not stated) .
Reply | -3.42

====

assay-text: Human HepG2 cell viability assay in 384 well format
Format: toxicity, cell-based
Design: dose 125 nL, time 70.5 hour; concentration not given beside the values
recorded-conditions: HepG2 cells, read-out: Inhibition
measured-metric: cytotoxicity at 70.5 h (%)
Number in %, nothing else.

Ask | Please report the recorded cytotoxicity at 70.5 h for O=C(NCCN1CCCC1)c1nc2c(o1)CN(c1ncccn1)C2 .
Reply | -1.07

Ask | Please report the recorded cytotoxicity at 70.5 h for O=C(NCCCOC1CCCCC1)C1NCCc2[nH]cnc21 (stereo unspecified) .
Reply | -3.08

Ask | Please report the recorded cytotoxicity at 70.5 h for O=C(CCc1cscn1)NS(=O)(=O)c1ccc2c(c1)CCC2 .
Reply | 8.97

Ask | Please report the recorded cytotoxicity at 70.5 h for CN(CC(=O)N1CCCC1Cn1cccn1)C1CC1 (stereo unspecified) .
Reply | -14.3

Ask | Please report the recorded cytotoxicity at 70.5 h for O=C(N1CCOCC1)N1CCN(c2ccncc2Cl)CC1 .
Reply | 1.32

Ask | Please report the recorded cytotoxicity at 70.5 h for CCN(CC)C(=O)C1CCC2(CCNCC2)O1 (stereo unspecified) .
Reply | -12.5

====

assay-text: Human HepG2 cell viability assay in 384 well format
Format: toxicity, cell-based
Design: dose 125 nL, time 70.5 hour; concentration not given beside the values
recorded-conditions: HepG2 cells, read-out: Inhibition
Provide the recorded cytotoxicity at 70.5 h for the entries that follow.
Number in %, nothing else.

Ask | Please report the recorded cytotoxicity at 70.5 h for O=C(CN1CCCC(c2ncc[nH]2)C1)NCCCN1CCCCCC1=O (stereo not given) .
Reply | -10.5

Ask | Please report the recorded cytotoxicity at 70.5 h for CCCS(=O)(=O)N(C)C(=O)CCc1ccccc1 .
Reply | -8.46

Ask | Please report the recorded cytotoxicity at 70.5 h for c1ccc(CO[C@H]2CC[C@H]3[C@H]2OCCN3CCN2CCCCC2)nc1 .
Reply | 20.6

Ask | Please report the recorded cytotoxicity at 70.5 h for Cc1cc(C)c2nc(CN3C[C@H](CCO)[C@@H](N)C3)cc(O)c2c1 .
Reply | -4.09

Ask | Please report the recorded cytotoxicity at 70.5 h for Cc1c(Cl)c(C(F)(F)F)nn1C(C)C(=O)NN1CCN(C)CC1 (stereo not given) .
Reply | -3.23

Ask | Please report the recorded cytotoxicity at 70.5 h for CC(Cn1cccn1)NC(=O)NCc1cccnc1OC1CCCC1 (stereo not given) .
Reply | -12.8

Ask | Please report the recorded cytotoxicity at 70.5 h for CN1CCCC1c1cncc(C(=O)NCCN2CCCCC2)n1 (stereo not given) .
Reply | -8.33

Ask | Please report the recorded cytotoxicity at 70.5 h for O=C(c1cn(-c2ccccc2)nn1)N1CCOCC(O)C1 (stereo not given) .
Reply | 15.7

Ask | Please report the recorded cytotoxicity at 70.5 h for Cc1cnc(C(=O)N2CCCC(n3cncn3)C2)cn1 (stereo not given) .
Reply | -4.15

Ask | Please report the recorded cytotoxicity at 70.5 h for O=C(c1cc(F)ccc1F)C1CCN(C(=O)c2cnccn2)CC1 .
Reply | -4.44
